Test system: Cutibacterium acnes
assay_name: Antimicrobial activity against Propionibacterium acnes by agar dilution method
Format: functional
metric_name: MIC (µg/mL)
// return numeric value only (unit: µg/mL, not printed)

Consider the following illustrative entries.
>  <smiles_string>
C[C@@H](O)[C@H]1C(=O)N2C(C(=O)O)=C(S[C@@H]3CN[C@H](C(=O)Nc4cccc(C(=O)O)c4)C3)[C@H](C)[C@H]12

>  <measurement_unit>
µg/mL

>  <quantitative_readout>
0.06

$$$$
>  <smiles_string>
C[C@@H](O)[C@H]1C(=O)N2C(C(=O)O)=C(S[C@@H]3CN[C@H](CNS(N)(=O)=O)C3)[C@H](C)[C@H]12

>  <measurement_unit>
µg/mL

>  <quantitative_readout>
0.06

$$$$
>  <smiles_string>
C[C@@H](O)[C@H]1C(=O)N2C(C(=O)O)=C(S[C@@H]3CN[C@H](C(=O)N(C)C)C3)[C@H](C)[C@H]12

>  <measurement_unit>
µg/mL

>  <quantitative_readout>
0.06

$$$$
>  <smiles_string>
CC(=O)NC[C@H]1CN(c2ccc(N3CCOCC3)c(F)c2)C(=O)O1

>  <measurement_unit>
µg/mL

>  <quantitative_readout>
0.5

$$$$
>  <smiles_string>
CCC[C@@H]1C[C@@H](C(=O)N[C@@H]([C@H]2O[C@H](SC)[C@H](O)[C@@H](O)[C@H]2O)[C@H](C)Cl)N(C)C1

>  <measurement_unit>
µg/mL

>  <quantitative_readout>
0.25

$$$$

Could you tell me which MIC is on file for `CO[C@@]1(NC(=O)Cc2cccs2)C(=O)N2C(C(=O)O)=C(COC(N)=O)CS[C@@H]21` ?
1

----------
Tested on: Cutibacterium acnes
assay_name: Antimicrobial activity against Propionibacterium acnes assessed as resistant isolates by agar dilution method
Assay type: functional
metric_name: Activity (%)
// return numeric value only (unit: %, not printed)

Consider the following illustrative entries.
>  <molecule>
Cc1ncc([N+](=O)[O-])n1CCO

>  <experimental_system>
Cutibacterium acnes

>  <metric_name>
Activity

>  <measurement_unit>
%

>  <quantitative_readout>
94.4

$$$$
>  <molecule>
C[C@@H](O)[C@H]1C(=O)N2C(C(=O)O)=C(S[C@@H]3CN[C@H](C(=O)Nc4cccc(C(=O)O)c4)C3)[C@H](C)[C@H]12

>  <experimental_system>
Cutibacterium acnes

>  <metric_name>
Activity

>  <measurement_unit>
%

>  <quantitative_readout>
0

$$$$
>  <molecule>
CN[C@H](CC(C)C)C(=O)N[C@H]1C(=O)N[C@@H](CC(N)=O)C(=O)N[C@H]2C(=O)N[C@H]3C(=O)N[C@H](C(=O)N[C@H](C(=O)O)c4cc(O)cc(O)c4-c4cc3ccc4O)[C@H](O)c3ccc(c(Cl)c3)Oc3cc2cc(c3O[C@@H]2O[C@H](CO)[C@@H](O)[C@H](O)[C@H]2O[C@H]2C[C@](C)(N)[C@H](O)[C@H](C)O2)Oc2ccc(cc2Cl)[C@H]1O

>  <experimental_system>
Cutibacterium acnes

>  <metric_name>
Activity

>  <measurement_unit>
%

>  <quantitative_readout>
0

$$$$

Could you tell me which Activity is on file for `CO[C@@]1(NC(=O)Cc2cccs2)C(=O)N2C(C(=O)O)=C(COC(N)=O)CS[C@@H]21` ?
0

Could you tell me which Activity is on file for `CC1(C)S[C@@H]2[C@H](NC(=O)[C@H](N)c3ccccc3)C(=O)N2[C@H]1C(=O)O` ?
0

Could you tell me which Activity is on file for `CC(=O)NC[C@H]1CN(c2ccc(N3CCOCC3)c(F)c2)C(=O)O1` ?
0

Could you tell me which Activity is on file for `CCN1CCN(C(=O)N[C@@H](C(=O)N[C@@H]2C(=O)N3[C@@H]2SC(C)(C)[C@@H]3C(=O)O)c2ccccc2)C(=O)C1=O` ?
0

Could you tell me which Activity is on file for `CCC[C@@H]1C[C@@H](C(=O)N[C@@H]([C@H]2O[C@H](SC)[C@H](O)[C@@H](O)[C@H]2O)[C@H](C)Cl)N(C)C1` ?
5.6

Could you tell me which Activity is on file for C[C@@H](O)[C@H]1C(=O)N2C(C(=O)O)=C(SCCNC=N)C[C@H]12 [IMIPENEM ANHYDROUS] ?
0
